experiment: Bioavailability of aliskiren after oral and transdermal administration in Sprague-Dawley rats (plasma LC-MS/MS); assay type: in vivo, rat; conditions: Sprague-Dawley, rat, plasma, topical; male SD rats, TD, 29 mg/kg
Measured Metric: AUC (µM·h)
// units = µM·h; emit number, no label

Query: For the compound shown here, COCCCOc1cc(C[C@@H](C[C@H](N)[C@@H](O)C[C@H](C(=O)NCC(C)(C)C(N)=O)C(C)C)C(C)C)ccc1OC , give the reported AUC.
Response: 0.25

* * *

assay: Bioavailability of aliskiren after oral and transdermal administration in Sprague-Dawley rats (plasma LC-MS/MS); type: in vivo, rat; conditions: Sprague-Dawley, rat, plasma; male SD rats, PO, 3 mg/kg
Measured Metric: AUC (nM·h)
API: value field is a number in nM·h; no unit string.

Query: Field request: AUC | item: COCCCOc1cc(C[C@@H](C[C@H](N)[C@@H](O)C[C@H](C(=O)NCC(C)(C)C(N)=O)C(C)C)C(C)C)ccc1OC
Response: 2.1

* * *

test: Bioavailability of aliskiren after oral and transdermal administration in Sprague-Dawley rats (plasma LC-MS/MS); assay type: in vivo, rat; conditions: Sprague-Dawley, rat, plasma, topical; male SD rats, TD, 2.9 mg/kg
Measured Metric: AUC
Respond with a number, then the unit of measure.

Query: Data request, read-out AUC, for COCCCOc1cc(C[C@@H](C[C@H](N)[C@@H](O)C[C@H](C(=O)NCC(C)(C)C(N)=O)C(C)C)C(C)C)ccc1OC [aliskiren]
Response: 0.084 µM·h

* * *

test: AUC of aliskiren after PO or TD delivery in telemetrized female dTG rats; type: in vivo, rat; settings: double transgenic (dTG, human renin and angiotensin), rat, blood, topical, TD, 36 mg/kg, read-out: AUC24 h
Measured Metric: AUC(0-t) (µM·h)
Answer with a number only, understood to be in µM·h.

Query: For the molecule shown here, COCCCOc1cc(C[C@@H](C[C@H](N)[C@@H](O)C[C@H](C(=O)NCC(C)(C)C(N)=O)C(C)C)C(C)C)ccc1OC [aliskiren] , give the reported AUC(0-t).
Response: 1.5

* * *

assay: AUC of aliskiren after PO or TD delivery in telemetrized female dTG rats; format: in vivo, rat; details: double transgenic (dTG, human renin and angiotensin), rat, in vivo, PO, 30 mg/kg, read-out: AUC24 h
Measured Metric: AUC(0-t)

Query: Sample COCCCOc1cc(C[C@@H](C[C@H](N)[C@@H](O)C[C@H](C(=O)NCC(C)(C)C(N)=O)C(C)C)C(C)C)ccc1OC — what was its AUC(0-t)?
Response: < 0.021 µM·h
